protocol: Primary qHTS for inhibitors of nuclear receptor binding SET domain protein 2 (NSD2) in an RCH-ACV wild type WT cells (2C) (AID 1645877); further: nearly all actives have a fitted effect of over 70% in size
measurementSetup: RCH-ACV (leukaemia line) NSD2 WT (2C) viability, CellTiter-Glo, 72 h; series mostly up to 44.9 µM
Results filed as inconclusive are left out. The source made the active and inactive calls. The call rests on the fitted dose curve; in most records, active means well fitted inhibition curve with a large enough effect; inconclusive means small, poorly fitted or top-dose-only effect; inactive means no such curve, though single readings can be large or run the other way.
measuredProperty: outcome

// lookup outcome for CO[C@H]1C=C2C(CC[C@H](O[C@@H]3O[C@H](CO)[C@@H](O)[C@@H](O)[C@H]3O)C2(C)C)[C@]2(C)CC[C@]3(C)C([C@H](C)C(O)C(C=C(C)C)O[C@@H]4O[C@H](CO)[C@@H](O)[C@@H](O)[C@H]4O)CC[C@@]3(C)C12 (stereo partly drawn)
inactive [at 9.23 µM]

What do you get for COC(=O)C1=COC(O[C@@H]2O[C@H](CO)[C@@H](O)[C@H](O)[C@H]2O)/C(=C\COC(=O)c2ccc(OC3OC(CO)C(O)C(O)C3O)c(OC)c2)C1CC(=O)OCCc1ccc(O)cc1 (stereo partly drawn) ?
inactive [at 9.23 µM]

---

Tested on: C33A
protocol: Primary qHTS to identify gynecologic anti-cancer compounds using libraries of approved drugs and bioactive compounds (AID 1345084); further: on the % scale 0 is the no-effect control and ±100 the full control effect; nearly all actives have a fitted effect of over 55% in size
measurementSetup: Gynecologic cancer cell panel viability, ATPlite luminescence, 48 h; series mostly up to 57.5 µM
Description: National Center for Advancing Translational Sciences [NCATS] Assay Overview: Chemotherapeutic drug responses vary from cancer to cancer and from patient to patient. […] ATPlite is a luminescence based assay reliant on the conversion of a luciferase substrate to light in the presence of ATP. As a cytotoxic compound will suppress growth and decrease the number of cells, the concentration of ATP will decrease, and less light signal will be detected in the well. […]
Inconclusive results are not listed. Activity calls are given as the source filed them. Calls come from the whole dose curve; as a rule, active = well fitted cell-killing curve with a large enough effect; inconclusive = small, poorly fitted or top-dose-only effect, or effect the other way; inactive = flat fitted curve, though single readings scatter.
measuredProperty: activity change, negative = cytotoxicity

Worked cases, answers included:
Find the measured activity change, negative = cytotoxicity: item `COc1cccc(-c2ccc([C@@H](Oc3cc(-c4ccc(C[C@H](N)C(=O)O)cc4)nc(N)n3)C(F)(F)F)cc2)c1` , target or system C33A.
inactive

What do you get for O=C(NCC(=O)N1CC[C@H](NC2CCC(O)(c3ccc(-c4ncccn4)cn3)CC2)C1)c1cccc(C(F)(F)F)c1 (some centres not stated) ?
inactive

What do you get for CC(=O)O[C@@H]1[C@H](O[C@@H]2O[C@H](CO)[C@@H](O)[C@H](O)[C@H]2O)[C@@H](O[C@@H]2O[C@@H](C)[C@H](O)[C@@H](O[C@@H]3O[C@H](CO)[C@@H](O)[C@H](O)[C@H]3O)[C@H]2O)[C@H](OC(=O)C23CCC4(C)C(=CCC5C6(C)CC(O)C(O[C@@H]7O[C@H](C(=O)O)[C@@H](O)[C@H](O)[C@H]7O)C(C)(C(=O)O)C6CCC54C)C2CC(C)(C)CC3O)O[C@@H]1C (some centres not stated) ?
3.56% [at 6.55 µM] (inactive)

What do you get for COc1cc(C2Oc3c(O)cc(CCCO)cc3C2CO)ccc1O[C@H]1O[C@H](C)[C@@H](O)[C@H](O)[C@@H]1O (some centres not stated) ?
inactive

What do you get for CO[C@H]1C=C2C(CC[C@H](O[C@@H]3O[C@H](CO)[C@@H](O)[C@@H](O)[C@H]3O)C2(C)C)[C@]2(C)CC[C@]3(C)C([C@H](C)C(O)C(C=C(C)C)O[C@@H]4O[C@H](CO)[C@@H](O)[C@@H](O)[C@H]4O)CC[C@@]3(C)C12 (some centres not stated) ?
-3.11% [at 11.6 µM] (inactive)

// input: 3 molecules below; output: activity change, negative = cytotoxicity for each
1. CC1(C)C(O)CCC2(C)C1C(O)C=C1COC(=O)C12O (configuration not stated)
2. C=CC1C(O[C@@H]2O[C@H](CO)[C@@H](O)[C@H](O)[C@H]2O)OC=C(C(=O)OC)C1Cc1nccc2c1[nH]c1ccccc12 (some centres not stated)
3. C[C@@H]1C(=O)O[C@H]2[C@H]1CC[C@@]1(C)C(=O)C=C[C@](C)(O)[C@H]21

inactive
inactive
inactive

// input: 4 molecules below; output: activity change, negative = cytotoxicity for each
1. CC(C)=CC/C=C(/C)[C@H]1CC[C@]2(C)[C@@H]1[C@H](O)CC1[C@@]3(C)CC[C@H](O)C(C)(C)[C@@H]3[C@@H](O[C@@H]3O[C@H](CO)[C@@H](O)[C@H](O)[C@H]3O[C@@H]3O[C@@H](C)[C@H](O)[C@@H](O)[C@H]3O)C[C@]12C (some centres not stated)
2. CC/C=C/CC1=C(CCCCCCCC(=O)O)CCC1=O
3. CC1(C)CCC(C)(C)c2cc([C@@H](O)C(=O)Nc3ccc(C(=O)O)cc3F)ccc21
4. C[C@@H]1O[C@@H](O[C@H]2[C@H](OC(=O)C34CCC(C)(C)CC3C3=CCC5C6(C)CC(O)C(O[C@@H]7O[C@H](CO)[C@@H](O)[C@H](O)[C@H]7O)C(C)(C(=O)O)C6CCC5(C)C3(CO)CC4)O[C@H](C)[C@H](O)[C@@H]2O)[C@H](O)[C@H](O)[C@H]1O[C@@H]1OC[C@@H](O)[C@H](O)[C@H]1O (some centres not stated)

1. inactive
2. inactive
3. inactive
4. 7.58% [at 11.6 µM] (inactive)
